Attribute: EC50
Tested on: HIV-1/106-Ala
method.notes: Inhibition of HIV-1 induced syncytium formation in CEM cells, RT mutant 106-Ala
Assay type: cell-based
stated.conditions: Human immunodeficiency virus 1, CCRF-CEM, 96 h, Table 2B, day 4, averages of 2 to 3 independent experiments, read-out: Antiviral Activity of Comparative Compounds EC50, 106-Ala
Provide only the numeric value, understood in µg/mL.

# molecule, unit.spec, measured.result
rows = [
    ("C=C(Cl)COc1cc(NC(=S)c2ccsc2C)ccc1C#N [Compound 25]", "µg/mL", 0.2),
    ("C=CC(C)(C)OC(=O)c1cc(NC(=S)c2ccoc2C)ccc1Cl [Compound 110]", "µg/mL", 0.2),
]

Let us move to another entry and its EC50.
Ask: Please look at this molecule and report its EC50: CC=CCSc1cc(NC(=O)c2ccoc2C)ccc1Cl [Compound 35]
Result: 0.8

These data points were gathered from patent US5696151A.
